# experimental-target: Prostaglandin G/H synthase 2 (Homo sapiens, UniProt P35354)
# Sequence (P35354 whole entry): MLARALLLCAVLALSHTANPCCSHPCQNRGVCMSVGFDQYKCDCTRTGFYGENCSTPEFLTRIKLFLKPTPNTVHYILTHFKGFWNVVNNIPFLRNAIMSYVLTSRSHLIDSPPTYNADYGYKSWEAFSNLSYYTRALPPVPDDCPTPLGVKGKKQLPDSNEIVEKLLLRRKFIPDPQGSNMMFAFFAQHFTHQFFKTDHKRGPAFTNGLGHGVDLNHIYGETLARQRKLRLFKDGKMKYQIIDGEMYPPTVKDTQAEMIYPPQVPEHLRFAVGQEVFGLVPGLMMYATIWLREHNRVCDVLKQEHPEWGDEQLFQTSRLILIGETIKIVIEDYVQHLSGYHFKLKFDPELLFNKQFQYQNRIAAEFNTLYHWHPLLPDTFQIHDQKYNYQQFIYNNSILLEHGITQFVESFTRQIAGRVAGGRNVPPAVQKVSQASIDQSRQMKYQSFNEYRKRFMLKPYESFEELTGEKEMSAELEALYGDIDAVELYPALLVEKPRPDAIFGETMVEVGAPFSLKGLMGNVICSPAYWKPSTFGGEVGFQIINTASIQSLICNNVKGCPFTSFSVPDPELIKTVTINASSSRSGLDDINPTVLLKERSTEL
# assay-name: Inhibition of human COX2 expressed in insect cells using arachidonic acid as substrate pretreated for 3 mins followed by substrate addition measured immediately
# Assay type: cell-based
# applied-conditions: read-out: IC50

{"compound": "COc1ccc2ccc(=O)oc2c1C/C=C(\\C)COC(=O)C=C(C)C", "experimental-target": "Prostaglandin G/H synthase 2 (Homo sapiens, UniProt P35354)", "IC50 / µM": 45.3}
{"compound": "CCC(C)C(C(=O)O)N(C(=O)C(N)CC(C)C)C(C(=O)O)C(C)CC (stereo not given)", "experimental-target": "Prostaglandin G/H synthase 2 (Homo sapiens, UniProt P35354)", "IC50 / µM": 34.6}
{"compound": "COc1ccc2cc([C@H](C)C(=O)O)ccc2c1 [NAPROXEN]", "experimental-target": "Prostaglandin G/H synthase 2 (Homo sapiens, UniProt P35354)", "IC50 / µM": 52.2}
{"compound": "COc1ccc2ccc(=O)oc2c1CC=C(C)C [OSTHOLE]", "experimental-target": "Prostaglandin G/H synthase 2 (Homo sapiens, UniProt P35354)", "IC50 / µM": 81.1}
{"compound": "COc1ccc2ccc(=O)oc2c1C/C=C(\\C)COC(=O)CC(C)C", "experimental-target": "Prostaglandin G/H synthase 2 (Homo sapiens, UniProt P35354)", "IC50 / µM": 56.4}

meta.source: ChEMBL document CHEMBL4130432
